Molecular target: 5-hydroxytryptamine receptor 2C (Homo sapiens)
Sequence (P28335 whole entry, canonical isoform): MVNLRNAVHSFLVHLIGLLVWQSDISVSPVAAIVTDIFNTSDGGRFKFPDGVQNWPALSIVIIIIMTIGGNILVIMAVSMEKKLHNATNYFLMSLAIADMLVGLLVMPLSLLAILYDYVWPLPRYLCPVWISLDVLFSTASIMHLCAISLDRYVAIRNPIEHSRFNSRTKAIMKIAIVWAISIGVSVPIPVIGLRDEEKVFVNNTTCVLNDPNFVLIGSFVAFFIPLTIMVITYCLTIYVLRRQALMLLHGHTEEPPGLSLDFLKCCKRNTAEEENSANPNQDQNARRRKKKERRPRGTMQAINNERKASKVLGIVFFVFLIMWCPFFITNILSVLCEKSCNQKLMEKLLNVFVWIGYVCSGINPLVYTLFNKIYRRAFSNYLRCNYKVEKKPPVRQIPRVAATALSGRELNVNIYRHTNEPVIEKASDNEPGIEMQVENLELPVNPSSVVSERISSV
Experiment: Inhibition constant against human 5-hydroxytryptamine 2C receptor [VGI isoforms] using [3H]mesulergine as radioligand with the compound (10 uM) dissolved in DMSO
Let's look at some compounds and their measured pKi.
Please keep in mind that pKi is minus log10 of the molar concentration; only the number is needed.

[
  {
    "chemical smiles": "CN(C)CCc1c[nH]c2cccc(F)c12",
    "pKi": 7.08
  }
]

Task item: Please look at `CN(C)CCc1c[nH]c2cc(O)ccc12` and tell me its recorded pKi on 5-hydroxytryptamine receptor 2C (Homo sapiens).
Reply: 5.17

Task item: Please look at `CN(C)CCc1cn(C)c2cccc(O)c12` and tell me its recorded pKi on 5-hydroxytryptamine receptor 2C (Homo sapiens).
Reply: 7.48

Task item: Please look at `CCCCn1cc(CCN(C)C)c2c(OP(=O)(O)O)cccc21` and tell me its recorded pKi on 5-hydroxytryptamine receptor 2C (Homo sapiens).
Reply: 6.68

Task item: Please look at `CN(C)Cc1cn(C)c2cccc(O)c12` and tell me its recorded pKi on 5-hydroxytryptamine receptor 2C (Homo sapiens).
Reply: 6.90
